Measured Kd values are reported for all entries that follow.
Biological target: T1, human Tie2ECD.flag (human, UniProt Q02763 23-748)
T1 construct: also called hTie2.flag; not shown: C-terminal Flag tag
T1 sequence (Q02763 23-748 limits assumed): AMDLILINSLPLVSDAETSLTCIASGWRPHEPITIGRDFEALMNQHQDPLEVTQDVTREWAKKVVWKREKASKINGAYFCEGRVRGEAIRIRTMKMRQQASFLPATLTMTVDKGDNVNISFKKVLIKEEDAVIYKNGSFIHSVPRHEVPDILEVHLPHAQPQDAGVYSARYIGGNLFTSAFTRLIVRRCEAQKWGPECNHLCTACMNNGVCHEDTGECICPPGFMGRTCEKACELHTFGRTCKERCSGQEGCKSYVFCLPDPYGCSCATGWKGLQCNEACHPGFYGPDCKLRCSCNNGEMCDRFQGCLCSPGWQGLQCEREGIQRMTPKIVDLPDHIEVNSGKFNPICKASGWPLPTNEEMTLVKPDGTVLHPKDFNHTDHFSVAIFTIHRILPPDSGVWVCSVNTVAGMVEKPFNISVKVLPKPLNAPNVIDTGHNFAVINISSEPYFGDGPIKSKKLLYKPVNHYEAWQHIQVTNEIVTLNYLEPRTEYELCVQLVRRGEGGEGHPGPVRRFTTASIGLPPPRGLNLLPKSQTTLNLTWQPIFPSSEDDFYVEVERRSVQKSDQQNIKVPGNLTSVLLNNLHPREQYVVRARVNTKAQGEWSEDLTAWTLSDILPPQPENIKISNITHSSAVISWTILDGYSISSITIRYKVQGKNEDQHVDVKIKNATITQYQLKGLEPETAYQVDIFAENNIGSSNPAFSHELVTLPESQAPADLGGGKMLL
Experiment: Biacore, hIgG captured, 25C

binder	unit	Kd
Tie2.34 (antibody, IgG1, V domains shown, hIgG1 in Biacore; also called Ab34) VH: EVQLVESGGGLVQPGGSLRLSCAASGFTFSDTYIHWVRQAPGKGLEWVAVIYPDNGATYYADSVKGTYYADSVKGRFTISADTSKNTAYLQMNSLRAEDTAVYYCAREFACARCVYGMDYWGQGTLVTVSS VL: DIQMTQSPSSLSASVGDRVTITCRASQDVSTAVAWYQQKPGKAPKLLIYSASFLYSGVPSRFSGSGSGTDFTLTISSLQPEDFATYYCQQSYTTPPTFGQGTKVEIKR	nM	155
Tie2.12 (antibody, IgG1, V domains shown, hIgG1 in later assays; also called Ab12) VH: EVQLVESGGGLVQPGGSLRLSCAASGFTFSSYWIHWVRQAPGKGLEWVAAISPNDGSTYYADSVKGRFTISADTSKNTAYLQMNSLRAEDTAVYYCARSRYYGQRLVYYVMDYWGQGTLVTVSS VL: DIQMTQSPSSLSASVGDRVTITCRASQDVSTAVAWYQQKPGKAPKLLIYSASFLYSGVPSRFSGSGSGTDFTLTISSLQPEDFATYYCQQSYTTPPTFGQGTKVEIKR	nM	52
Tie2.1 (antibody, human IgG1, V domains shown, human IgG1 in all later assays; also called Ab1; Tie2.1.M100c) VH: EVQLVESGGGLVQPGGSLRLSCAASGFTFSNTDISWVRQAPGKGLEWVGRISPSDGNTYYADSVKGRFTISADTSKNTAYLQMNSLRAEDTAVYYCARRTRWASWAMDYWGQGTLVTVSS VL: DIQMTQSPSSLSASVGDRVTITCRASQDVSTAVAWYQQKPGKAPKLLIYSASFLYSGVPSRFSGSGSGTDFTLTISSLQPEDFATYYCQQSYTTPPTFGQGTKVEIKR	nM	1200
Tie2.38 (antibody, IgG1, V domains shown, hIgG1 in later assays; also called Ab38) VH: EVQLVESGGGLVQPGGSLRLSCAASGFTFSNSAIHWVRQAPGKGLEWVASITPYNGYTYYADSVKGRFTISADTSKNTAYLQMNSLRAEDTAVYYCARRQSYSYVMDYWGQGTLVTVSS VL: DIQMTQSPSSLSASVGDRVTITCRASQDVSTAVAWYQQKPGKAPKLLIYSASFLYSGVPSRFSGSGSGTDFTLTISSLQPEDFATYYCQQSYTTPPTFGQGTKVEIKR	nM	376
